- ASSAY COMMENT: SGF digest of 168 nutritive polypeptide library, intact protein by LC-MS/MS
- Type: in vitro ADME
- REPORTED CONDITIONS: 168 nutritive polypeptide library SGF digest, LC-MS/MS spectral counts
ASSAY READOUT: % Intact Protein at 10 min (%)
The figure you give is taken to be in %; do not add the unit.

MOLECULE: SEQID-00521: protein of the 168 nutritive polypeptide library (protein, listed as Arthrospira platensis) MQDAITSVINSSDVQGKYLDASAIQKLKAYFATGELRVRAATTISANAANIVKEAVAKSLLYSDITRPGGNMYTTRRYAACIRDLDYYLRYATYAMLAGDPSILDERVLNGLKETYNSLGVPIGATVQAIQAMKEVTAGLVGADAGKEMGIYFDYICSGLS
% Intact Protein at 10 min / %: 11.5
//
MOLECULE: SEQID-00619: protein of the 168 nutritive polypeptide library (protein, listed as Linum usitatissimum) MAPKAAEKKPAEKKPAEEKKAEKAPAEKKPRAEKKLPKEGGAAAADKKKKRNKKNVETYKIYIFKVLKQVHPDIGISSKAMGIMNSFINDIFEKLAAESSRLARYNKKPTITSREIQTAVRLVLPGELAKHAVSEGTKAVTKFTSS
% Intact Protein at 10 min / %: 68.5

Let us examine a further case.
Query: Fill in the blank: the reported % Intact Protein at 10 min of SEQID-00607: protein of the 168 nutritive polypeptide library (protein, Arthrospira platensis C1, protein of the 168 nutritive polypeptide library) MALQDDWQQSHLERRQVLAESQKQIWATIGLWQRERYSQAITQKQDRQAFVSQLKQENQAFLADAHNNHRQQAEQLAEDLKEFVRSLQKETATFLEESAQSRAEKAEELAQELRDFRAELRDTVAQWQQQWQQQDQERAAGRRKLAQQVQGDLQEFNIIRTIMAEKLLQQTQEAKAERLAGIQSMFEDMGKFRMQLQEYRREREKSVWGGERVKSTPATPQKAKASQTLVPQTKPKAVKSAPSTTTAAQSTTPTAVVVAEPTKPAVPPNQPKPTTVVPHPPNPG is ____.
Result: 0
